# TGT: Erf2 (Saccharomyces cerevisiae)
# Construct: made in house; host or cells: Saccharomyces cerevisiae strain RJY1842 (erf4Δ/erf4Δ), galactose-induced pESC(-Leu) vector, Ni-NTA purified
# Sequence (Q06551 whole entry): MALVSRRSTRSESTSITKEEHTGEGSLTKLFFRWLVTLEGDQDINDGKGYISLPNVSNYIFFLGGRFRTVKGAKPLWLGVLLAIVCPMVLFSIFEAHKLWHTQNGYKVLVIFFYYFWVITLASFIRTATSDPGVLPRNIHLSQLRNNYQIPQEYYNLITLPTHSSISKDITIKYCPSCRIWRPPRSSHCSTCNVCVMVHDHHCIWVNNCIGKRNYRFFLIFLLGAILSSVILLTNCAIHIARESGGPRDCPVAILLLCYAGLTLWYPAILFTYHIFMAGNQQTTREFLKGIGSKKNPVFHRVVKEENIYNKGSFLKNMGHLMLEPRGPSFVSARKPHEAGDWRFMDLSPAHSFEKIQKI
# RUN_DESCRIPTION: BODIPY-C12:0 gel-based assay of steady-state Erf2 autopalmitoylation
# Assay type: biochemical, S. cerevisiae
# PARTICULARS: dose response curves of steady-state autopalmitoylation; read-out: steady-state autopalmitoylation inhibition constant (Ki), gel-based assay
READOUT_LABEL: Ki

Recorded result, CCCCCCCCCCCCCCC(Br)C(=O)O (stereo not shown) [Compound 2-BP, 2-bromopalmitic acid, reference compound] , Ki: 79 µM

Data origin, for the record: patent US10085981B2
